Measured values drawn from PubChem BioAssay (Tox21) for this set.

Experiment: qHTS assay to test for compound auto fluorescence at 590 nm (red) in HEK293 cell free culture (AID 720683)
Conditions: cell-free medium autofluorescence, Ex540/Em590 red; series mostly up to 91.3 µM
Calls of active or inactive are those of the source. Calls come from the whole dose curve; as a rule, active = well fitted curve in the direction sought with a large enough effect in the repeat runs; inconclusive = weak or mixed curves; inactive = flat fitted curve, though single readings scatter.
Recorded metric: outcome

Answered cases to consult:
{"columns": ["Compound", "outcome"],
 "data": [
  ["CCCc1c(OCCCCc2nn[nH]n2)ccc(C(C)=O)c1O", "inactive"],
  ["NC=O", "inactive"],
  ["O=S(=O)(O)c1ccc(O)cc1", "inactive"],
  ["CC1=CC2C3CC(C=C3C)C2C1 (configuration not stated)", "inactive"],
  ["O=P(O)(O)O", "inactive"],
  ["Cc1cccc(C(=O)O)c1", "inactive"]
]}

Go through the items and report each one's outcome.
1. NNc1ccc(C(=O)O)cc1
2. c1ccc(Nc2ccccc2)cc1
3. COc1ccccc1/C=C/C=O
4. CC(C(=O)O)c1cccc(C(=O)c2ccccc2)c1 (configuration not stated)
5. CC1=CCC(C(C)(C)O)CC1 (configuration not stated)
6. O=C(Nc1ccc(Cl)cc1)Nc1ccc(Cl)c(Cl)c1

-- reply
inactive
inactive
inactive
inactive
inactive
inactive

---

Assay: Caspase-3/7 induction in HepG2 cells by small molecules, qHTS assay (AID 1346978); note: nearly all actives have a fitted effect of over 15% in size
Details: HepG2 caspase-3/7 activation, Caspase-Glo luminescence, 17 h; series mostly up to 92.4 µM
Description: National Center for Advancing Translational Sciences [NCATS] NIH Chemical Genomics Center [NCGC] U.S. Environmental Protection Agency [EPA] National Institutes of Environmental Health Sciences [NIEHS] National Toxicology Program [NTP] Assay overview: Apoptosis is a process of programmed cell death and plays a central role in the development of multicellular organisms. […]
Results filed as inconclusive are left out. The source made the active and inactive calls. Calls come from the whole dose curve; as a rule, active = well fitted activation curve with a large enough effect in the repeat runs; inconclusive = weak or mixed curves; inactive = flat fitted curve, though single readings scatter.
Recorded metric: outcome

Answered cases to consult:
{"columns": ["Molecule", "outcome"],
 "data": [
  ["O=C(Nc1ccc([N+](=O)[O-])cc1Cl)c1cc(Cl)ccc1O", "inactive"],
  ["CC(C)=CCCC(C)CCO (stereo not drawn)", "inactive"],
  ["Nc1ccc(Nc2ccccc2)cc1", "inactive"],
  ["COC(=O)CCC(=O)OC", "inactive"],
  ["COC(C)COC(C)COC(C)CO (stereo not drawn)", "inactive"],
  ["CCC(C)c1ccccc1O (stereo not drawn)", "inactive"],
  ["CC(C)=CCC/C(C)=C\\CO", "inactive"]
]}

-- ask # return recorded outcome for input c1ccncc1
-- reply inactive

---

Assay: qHTS assay to identify small molecule antagonists of the androgen receptor (AR) signaling pathway using the MDA cell line in the presence of 0.5 nM R1881 - cell viability counter screen (AID 1259242); note: nearly all actives have a fitted effect of over 45% in size
Details: MDA-kb2 viability, CellTiter-Fluor protease fluorescence, 16 h; series mostly up to 92.4 µM
Inconclusive results are not listed. Active and inactive are the calls of the source. Calls follow the shape of the dose curve; as a rule, active = well fitted cell-killing curve with a large enough effect in the repeat runs; inconclusive = weak or mixed curves, or effect the other way; inactive = flat fitted curve, though single readings scatter.
Recorded metric: outcome

{"columns": ["Compound", "outcome"],
 "data": [
  ["CN(C)C(=N)N=C(N)N", "inactive"],
  ["C=CC(C)(CCC=C(C)C)OC(C)=O (centres undefined)", "inactive"],
  ["CN(C)CCC=C1c2ccccc2CCc2ccccc21", "inactive"],
  ["Cc1c(C(N)=O)cc([N+](=O)[O-])cc1[N+](=O)[O-]", "inactive"]
]}

Go through the items and report each one's outcome.
1. CN1C(C(=O)Nc2ccccn2)=C(O)c2ccccc2S1(=O)=O
2. CC(C)Oc1ccc2c(=O)c(-c3ccccc3)coc2c1
3. O=C(/C=C/c1ccccc1)OCc1ccccc1
4. Oc1ccc(O)cc1
5. CC(CCC(=O)O)(c1ccc(O)cc1)c1ccc(O)cc1

-- reply
["inactive", "inactive", "inactive", "inactive", "inactive"]
